Origin of values: PubChem BioAssay (EPA / NIEHS)

- assayDetails: ATG_TCF_b_cat_CIS: Attagene CIS-FACTORIAL HepG2 Assay for human T-Cell-Factor with beta-catenin (TCF/b-cat) (AID 2282965)
- measurementContext: HepG2 TCF/beta-catenin cis-reporter transcription, actives raise or lower the signal
Activity calls are given as the source filed them. The calls were made as follows: active = hit-call score of the fitted dose curve at least 0.9, where 1 is the maximum; inactive = score below 0.9.
measureName: AC50

Use the examples below as a reference point.
compound: CCCCOC(=O)CC(CC(=O)OCCCC)(OC(C)=O)C(=O)OCCCC
AC50: inactive
//
compound: CCCCCCCCCCCC[N+](C)(C)C
AC50: inactive
//
compound: COc1ccc2cc(S(=O)(=O)N[C@H](CC(=O)N[C@H](Cc3ccc(CN4[C@H](C)CCC[C@@H]4C)cc3)C(=O)N(C)C(C)C)c3ccc4c(c3)OCO4)ccc2c1
AC50: 11.2 µM (active)
//
compound: NCc1cccc(C2CCN(C(=O)c3ccc(C#Cc4ccccc4F)o3)CC2)c1
AC50: 17 µM (active)
//
compound: Cc1cc2c(cc1C(F)(F)F)N(C(=O)Nc1ccc(Oc3cccnc3C)nc1)CC2
AC50: inactive

Query: Fill in the blank: the reported AC50 of CCCCCCCCCCCO is ____.
Response: inactive

Query: Need AC50 of CC(O)CC(C)(C)O (configuration not stated) , thanks.
Response: inactive

---

- system: Estrogen receptor (Homo sapiens)
- assayDetails: OT_ERa_GFPERaERE_0480: Odyssey Thera (OT) 8-hour HeLa Transcription Induction Assay for Estrogen Receptor (AID 2283381)
The source made the active and inactive calls. Rule for the calls: active = hit-call score of the fitted dose curve at least 0.9, where 1 is the maximum; inactive = score below 0.9.
API: response.call in active, inactive

Query: Look up the recorded call for CC(C)(C)c1cc(/C=C2\SC(N)=NC2=O)cc(C(C)(C)C)c1O in this test.
Response: inactive

Query: Name the outcome recorded for CCCCCCCCCCCCO in the assay.
Response: inactive

Query: How was Cc1ccc2oc(CN(Cc3ccccc3)C(=O)Nc3c(F)cc(F)cc3F)c(-c3ccc(Cl)cc3)c2c1 classified in this test?
Response: inactive

Query: In this assay, the call recorded for OC12N=C(c3ccccc3)SC1Cc1cc(Cl)ccc12 (stereo not given) was what?
Response: inactive

Query: Kindly provide the recorded test outcome for the following compound: CCCC(=O)OCCC(C)C
Response: inactive

Query: What classification did CCCCCCCCOc1ccc(C(=O)c2ccccc2)c(O)c1 end up with in this test?
Response: inactive

Query: What was the test verdict on CCN(Cc1cccc(S(=O)(=O)O)c1)c1ccc(C(=C2C=CC(=[N+](CC)Cc3cccc(S(=O)(=O)O)c3)C=C2)c2ccccc2S(=O)(=O)[O-])cc1 ?
Response: inactive

Query: recorded result category for CC(=O)N1CCN(c2ccc(OC[C@H]3CO[C@](Cn4ccnc4)(c4ccc(Cl)cc4Cl)O3)cc2)CC1 in this test
Response: active

Query: Hi, do you know how CC(C)(O)c1ccc(CNC(=O)c2cccnc2Oc2ccc3nonc3c2)cc1 came out in this test?
Response: inactive

Query: For this compound, state the assay outcome: Cc1ccc(C(C)C)cc1
Response: inactive

Query: # fetch the recorded call for O=C(OCCCCCCOC(=O)c1ccccc1)c1ccccc1 here
Response: inactive

Query: Which outcome was entered for the compound CCOC(=O)O[C@H](C)OC(=O)c1ccc2c(c1)cc(C(=O)NC1CCN(C(C)C)CC1)n2Cc1cc(-c2ccc(Cl)s2)on1 in this test?
Response: active

Query: Answer briefly: the call reported for CC[C@H](NC(=O)c1cc(F)ccc1NS(=O)(=O)c1cccc2cccnc12)c1ccccc1 in this assay.
Response: inactive

Query: GET /call?item= CCN(Cc1cccnc1)C(=O)c1cccc(Cl)c1[C@]1(C)C(=O)N(Cc2ccc(OC)cc2OC)c2ccc(Cl)cc21 returns the recorded outcome of this test.
Response: inactive

Query: I would be grateful if you could indicate the recorded call for O=C1c2ccccc2C(=O)N1CCc1noc(-c2ccc(CN3CCCCCC3)s2)n1 .
Response: inactive

Query: Tell me the assay call for COc1ccc2cc(S(=O)(=O)N[C@H](CC(=O)N[C@H](Cc3ccc(CN4[C@H](C)CCC[C@@H]4C)cc3)C(=O)N(C)C(C)C)c3ccc4c(c3)OCO4)ccc2c1 please.
Response: active

Query: Look up the recorded call for Cc1oc2c(NC(=O)c3c(Cl)cccc3Cl)cccc2c1C(C)(C)O in this test.
Response: inactive

Query: # lookup: test call for Cc1cc2c(cc1C(F)(F)F)N(C(=O)Nc1ccc(Oc3cccnc3C)nc1)CC2
Response: inactive

Query: Which outcome was entered for the compound c1ccc(C[n+]2cccc3ccccc32)cc1 in this test?
Response: inactive

Query: Recorded call for Cc1c2ccccc2c(C)c2c1ccc1ccccc12 ?
Response: inactive

Query: Test call for this compound, please: CC(C)(C)c1csc(-c2cc3cc(OCc4ccccc4CC(=O)O)ccc3o2)n1
Response: inactive

Query: Assay outcome for CCCCCCCCCCCO : what was it?
Response: inactive

Query: Called result for CCCCCCCCOC(=O)c1cc(O)c(O)c(O)c1
Response: active

Query: GET /call?item= O=CCCCC=O returns the recorded outcome of this test.
Response: inactive

Query: Just curious, what result did COCC(C)OCC(C)OCC(C)O (stereo not given) get here?
Response: inactive

Query: Hi, do you know how CN(C)C(=O)C1(N2CCCCC2)CCN(CC[C@@]2(c3ccc(Cl)c(Cl)c3)CN(C(=O)c3ccccc3)CCO2)CC1 came out in this test?
Response: active

Query: Look up the recorded call for CCCCCCCCN(C)CCCCCCCC in this test.
Response: inactive

Query: Entry O=c1ccc2ccccc2o1 : call = ?
Response: inactive

Query: Tell me the recorded outcome of this test for O=C=NCCCCCCN=C=O .
Response: inactive

Query: What classification did CCN(CC)C(=O)c1cc(S(=O)(=O)Cc2ccccc2)c(N2CCC(c3ccccc3)CC2)cc1N(CC)CCN(C)C end up with in this test?
Response: inactive

Query: Which result was noted for this compound in the test: NCc1cccc(C2CCN(C(=O)c3ccc(C#Cc4ccccc4F)o3)CC2)c1
Response: inactive

Query: Each compound tested received a call. Report the one for Cc1occc1C(=O)Nc1ccc(C(=O)N2CCC(F)(F)/C(=C\C(=O)N3CCC(N4CCCCC4)CC3)c3ccccc32)cc1 .
Response: inactive

Query: # fetch the recorded call for OCCO here
Response: inactive

Query: What outcome does the record of this test show for c1ccc2ccccc2c1 ?
Response: inactive

Query: Would you mind telling me which call this test gave COc1cc(C(=O)NC2CCN(C)CC2)ccc1Nc1ncc2c(n1)N(C1CCCC1)CC(F)(F)C(=O)N2C ?
Response: inactive

Query: // param item: CC1=CC(=O)/C(=C(/C)O)C(=O)O1 ; yields the recorded call
Response: inactive

Query: How was Cc1cc(F)ccc1-c1cc(N2CC[C@@H](O)[C@H]2CO)ncc1N(C)C(=O)C(C)(C)c1cc(C(F)(F)F)cc(C(F)(F)F)c1 classified in this test?
Response: inactive

Query: Outcome logged for O=C(O)c1ccccc1-n1cc(C(=O)O)c(=O)c2cc(Nc3c(F)cc(F)cc3Cl)c(Cl)cc21 in this assay:
Response: inactive

Query: Test call, this compound: Cc1cccc2ccccc12
Response: inactive

Query: Which result was noted for this compound in the test: O=C(Nc1ccc(Cl)cc1)Nc1ccc(Cl)c(Cl)c1
Response: inactive
